Target System: Adenosine receptor A2a (Homo sapiens, UniProt P29274)
Sequence (P29274 whole entry): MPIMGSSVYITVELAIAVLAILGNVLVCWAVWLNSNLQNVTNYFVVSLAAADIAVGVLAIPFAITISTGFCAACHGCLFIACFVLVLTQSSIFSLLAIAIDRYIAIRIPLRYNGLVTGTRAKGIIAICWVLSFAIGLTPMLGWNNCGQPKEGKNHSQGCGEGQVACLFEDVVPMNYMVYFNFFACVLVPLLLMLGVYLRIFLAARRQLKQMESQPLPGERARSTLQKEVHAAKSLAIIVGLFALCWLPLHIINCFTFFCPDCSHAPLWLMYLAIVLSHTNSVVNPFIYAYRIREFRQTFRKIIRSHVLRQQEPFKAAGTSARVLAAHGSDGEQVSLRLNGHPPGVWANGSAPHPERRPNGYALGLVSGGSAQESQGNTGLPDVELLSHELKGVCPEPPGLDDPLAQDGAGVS
Experiment Notes: Displacement of [3H]ZM241385 from human adenosine A2A receptor expressed in HeLa cells at 1 uM by microplate beta scintillation counting
Type: cell-based
Readout: Activity (%)

Study these solved cases before continuing.
| Compound | Readout | Measurement Units | Recorded Result |
| --- | --- | --- | --- |
| CCCCCn1c(=O)c2[nH]c(Cc3ccccc3)nc2n(Cc2ccco2)c1=O | Activity | % | 7 |
| O=c1c2[nH]c(Cc3cccs3)nc2n(Cc2ccco2)c(=O)n1CC1CC1 | Activity | % | 12 |
| CCS(=O)(=O)CCn1c(=O)c2[nH]c(Cc3ccccc3)nc2n(Cc2ccco2)c1=O | Activity | % | 1 |
| CC(C)Cn1c(=O)c2[nH]c(Cc3ccccc3)nc2n(Cc2ccco2)c1=O | Activity | % | 13 |
| CCSCCn1c(=O)c2[nH]c(Cc3ccccc3)nc2n(Cc2ccco2)c1=O | Activity | % | 11 |
| CC[S+]([O-])CCn1c(=O)c2[nH]c(Cc3ccccc3)nc2n(Cc2ccco2)c1=O (stereo unspecified) | Activity | % | 11 |

I. CC[S+]([O-])CCn1c(=O)c2[nH]c(Cc3cccs3)nc2n(Cc2ccco2)c1=O (stereo unspecified)
II. CCOCCn1c(=O)c2[nH]c(Cc3cccs3)nc2n(Cc2ccco2)c1=O
III. CCCn1c(=O)c2[nH]c(Cc3cccs3)nc2n(Cc2ccco2)c1=O
IV. COCCn1c(=O)c2[nH]c(Cc3ccccc3)nc2n(Cc2ccco2)c1=O
V. CCOCCn1c(=O)c2[nH]c(Cc3ccccc3)nc2n(Cc2ccco2)c1=O
Query :: Arrange the 5 compounds from largest to smallest Activity. Labels, ranked as asked.
Result :: IV, III, I, V, II
(IV: 32%, III: 19%, I: 10%, V: 2%, II: 1%)

====

Target System: Adenosine receptor A3 (Homo sapiens)
Sequence (whole entry): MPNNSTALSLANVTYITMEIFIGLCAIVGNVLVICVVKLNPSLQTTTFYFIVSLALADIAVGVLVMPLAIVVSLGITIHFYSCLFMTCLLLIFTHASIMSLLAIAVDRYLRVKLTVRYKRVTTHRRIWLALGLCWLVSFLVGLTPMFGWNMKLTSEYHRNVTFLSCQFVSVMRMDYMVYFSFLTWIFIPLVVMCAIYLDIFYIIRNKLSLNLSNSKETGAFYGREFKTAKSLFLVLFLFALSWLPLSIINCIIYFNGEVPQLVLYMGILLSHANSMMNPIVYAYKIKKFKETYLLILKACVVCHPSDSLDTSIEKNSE
Experiment Notes: Displacement of [3H]NECA from human recombinant adenosine A3 receptor expressed in HeLa cells at 1 uM
Assay type: cell-based
Readout: Activity (%)

| Compound | Readout | Measurement Units | Recorded Result |
| --- | --- | --- | --- |
| CCCn1c(=O)c2c(nc(Cc3cccs3)n2C)n(Cc2ccco2)c1=O | Activity | % | 65 |
| CC[S+]([O-])CCn1c(=O)c2[nH]c(Cc3ccccc3)nc2n(Cc2ccco2)c1=O (centres undefined) | Activity | % | 26 |
| O=c1c2[nH]c(Cc3c(F)cccc3F)nc2n(Cc2ccco2)c(=O)n1CC1CC1 | Activity | % | 7 |
| CCOCCn1c(=O)c2[nH]c(Cc3ccccc3)nc2n(Cc2ccco2)c1=O | Activity | % | 6 |
| COCCn1c(=O)c2c(nc(Cc3cccs3)n2C)n(Cc2ccco2)c1=O | Activity | % | 4 |
| COCCn1c(=O)c2c(nc(Cc3ccccc3)n2C)n(Cc2ccco2)c1=O | Activity | % | 5 |

P. CCSCCn1c(=O)c2[nH]c(Cc3ccccc3)nc2n(Cc2ccco2)c1=O
Q. CCn1c(=O)c2[nH]c(Cc3cccs3)nc2n(Cc2ccco2)c1=O
R. CCCCCn1c(=O)c2[nH]c(Cc3ccccc3)nc2n(Cc2ccco2)c1=O
Query :: Sort entries by Activity from minimum to maximum value. Please list the labels in the order you were asked to rank them.
Result :: Q, P, R
(Q: 3%, P: 14%, R: 24%)
